- Test: Cell viability (MTT) assay, 45 min exposure in classic buffer
- Condition Set: dromedary camel, transduced Dubca cells overexpressing human Panx1

Compound	viability at 45 min, 590 µM (%)
CC[C@H]1OC(=O)[C@H](C)[C@@H](O[C@H]2C[C@@](C)(OC)[C@@H](O)[C@H](C)O2)[C@H](C)[C@@H](O[C@@H]2O[C@H](C)C[C@H](N(C)C)[C@H]2O)[C@](C)(O)C[C@@H](C)CN(C)[C@H](C)[C@@H](O)[C@]1(C)O [Azithromycin (dihydrate), azithromycin dihydrate]	74

* * *

- Test system: transduced Dubca cells overexpressing human Panx1
- Test: Cell viability (MTT) assay, 24 h exposure, for CC10 determination
- Condition Set: sigmoidal curve fit
Endpoint Label: CC10 (concentration inducing 10% of cell death) (µM)

Molecule	Assayed Target	Comparison Sign	Value
CC[C@H]1OC(=O)[C@H](C)[C@@H](O[C@H]2C[C@@](C)(OC)[C@@H](O)[C@H](C)O2)[C@H](C)[C@@H](O[C@@H]2O[C@H](C)C[C@H](N(C)C)[C@H]2O)[C@](C)(O)C[C@@H](C)CN(C)[C@H](C)[C@@H](O)[C@]1(C)O [Azithromycin (dihydrate), azithromycin dihydrate]	transduced Dubca cells overexpressing human Panx1	=	59
CC(C)c1nc(CN(C)C(=O)N[C@H](C(=O)N[C@@H](Cc2ccccc2)C[C@H](O)[C@H](Cc2ccccc2)NC(=O)OCc2cncs2)C(C)C)cs1	transduced Dubca cells overexpressing human Panx1	=	12
NC(=O)c1nc(F)c[nH]c1=O	transduced Dubca cells overexpressing human Panx1	>	200
CCN(CCO)CCCC(C)Nc1ccnc2cc(Cl)ccc12 (centres unmarked) [Hydroxychloroquine (sulphate), hydroxychloroquine sulphate]	transduced Dubca cells overexpressing human Panx1	=	23
Cc1cccc(C)c1OCC(=O)N[C@@H](Cc1ccccc1)[C@@H](O)C[C@H](Cc1ccccc1)NC(=O)[C@H](C(C)C)N1CCCNC1=O	transduced Dubca cells overexpressing human Panx1	=	17
